experiment: Rat plasma pharmacokinetics after 10-day vehicle/SLE and digoxin or GE; format: in vivo, Sprague-Dawley rats; details: female, Sprague-Dawley, rat, plasma, po, rats, SLE 500 mg/kg ig once a day for 10 days, day 11 digoxin 0.5 mg/kg or GE 120 mg/kg ig; read-out: AUCINF_obs
measured.property: AUC(0-inf) (ng·h/mL)

- molecule: "CC(C)=CCC[C@](C)(O[C@@H]1O[C@H](CO[C@@H]2OC[C@H](O)[C@H](O)[C@H]2O)[C@@H](O)[C@H](O)[C@H]1O)[C@H]1CC[C@]2(C)[C@@H]1[C@H](O)C[C@@H]1[C@@]3(C)CC[C@H](O[C@@H]4O[C@H](CO)[C@@H](O)[C@H](O)[C@H]4O[C@@H]4O[C@H](CO)[C@@H](O)[C@H](O)[C@H]4O)C(C)(C)[C@@H]3CC[C@]12C [Rb2, ginsenoside Rb2]"
  measured.property: "AUC(0-inf)"
  observed.value: 16600

Value source: paper PMC4055595
